Molecular target: UniProtKB P11473
Sequence (P11473 whole entry): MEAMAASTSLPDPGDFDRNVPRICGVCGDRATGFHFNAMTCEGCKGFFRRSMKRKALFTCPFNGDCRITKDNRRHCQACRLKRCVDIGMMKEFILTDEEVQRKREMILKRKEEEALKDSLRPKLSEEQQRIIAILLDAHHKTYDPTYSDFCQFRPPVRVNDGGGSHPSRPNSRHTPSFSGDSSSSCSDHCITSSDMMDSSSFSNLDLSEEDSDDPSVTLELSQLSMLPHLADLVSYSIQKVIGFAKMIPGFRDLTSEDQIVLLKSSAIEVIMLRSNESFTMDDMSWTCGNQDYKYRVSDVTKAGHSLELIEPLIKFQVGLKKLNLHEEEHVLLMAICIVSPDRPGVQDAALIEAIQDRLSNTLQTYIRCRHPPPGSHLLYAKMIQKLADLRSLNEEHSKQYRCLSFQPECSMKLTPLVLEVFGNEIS
pIC50: −log10 of the molar value.
pIC50 for UniProtKB P11473, merged from several publications.
Measurement name: pIC50

Sample answers from the record:
| Compound | pIC50 |
| --- | --- |
| CCN(CC)CCCNC(=O)c1ccc(C(CC)(CC)c2ccc(OCC(O)C(C)(C)C)c(C)c2)n1CC (centres undefined) | 7.15 |
| C=C1/C(=C\C=C2/CC[C@@H](CCCCCCC(C)(C)O)[C@]3(C)[C@@H]([C@H](C)CCO)CC[C@@H]23)C[C@@H](O)C[C@@H]1O | 7.56 |
| CCn1c(C(=O)NCCCO)ccc1C(CC)(CC)c1ccc(C#CC(O)(CC)CC)c(C)c1 | 6.91 |

I = C=C1[C@H](O)CC(=C/C=C2\CCC[C@]3(C)[C@@H]([C@H](C)[C@H](CCCC)CC(O)(CC)CC)CC[C@@H]23)C[C@H]1O
II = C=C1[C@H](O)CC(=C/C=C2\CCC[C@]3(C)[C@@H]([C@H](C)[C@H](CC)CCO)CC[C@@H]23)C[C@H]1O
Returns: the label, I or II , whose recorded pIC50 is the lower number. Kindly give the label for the entry you pick.
II
